# EXPERIMENTAL PROTOCOL: 2D NMR structural score versus reference peptide
# Assay type: physicochemical
# Set-up: key: +++ indicates the peptide is structured similarly to IGE063 (SEQ ID NO:49); + indicates the peptide is structured similarly to IGE063 (SEQ ID NO:49), but is less stable; −/+ indicates the peptide has some elements of stable structure, but the conformation differs from the reference structure (e.g., a different turn type is evident); − indicates the peptide is predominantly unstructured in aqueous solution
# RUN PARAMETERS: reference IGE063
Where a SMILES comes first, the peptide text is derived from it. Bridges are numbered along the chain shown (N, C = ends). [ ]: non-standard residue; d: D form. NMeA = CN[C@@H](C)C(=O)O
MEASUREMENT KIND: Struct. Score

CSCC[C@H](NC(=O)[C@@H]1CSSC[C@H](NC(=O)[C@H](CCCNC(=N)N)NC(=O)[C@@H]2CCCN2C(=O)[C@H](CC(C)C)NC(=O)[C@H](CC(N)=O)NC(C)=O)C(=O)N[C@@H]([C@@H](C)O)C(=O)N[C@@H](CCC(=O)O)C(=O)NCC(=O)N(C)[C@@H](C)C(=O)N[C@@H](Cc2c[nH]c3ccccc23)C(=O)NCC(=O)N[C@@H](Cc2c[nH]c3ccccc23)C(=O)N[C@@H](C(C)C)C(=O)N1)C(=O)O [IGE096, Ac-NLPRCTEG(N-Me-A)WGWVCM] (Ac-NLPRCTEG[NMeA]WGWVCM-OH; disulfide 5-14; C-terminus assumed) ... +++
CSCC[C@H](NC(=O)[C@@H]1CSSC[C@H](NC(=O)[C@H](CCCNC(=N)N)NC(=O)[C@@H]2CCCN2C(=O)[C@H](CC(C)C)NC(=O)[C@H](CC(N)=O)NC(C)=O)C(=O)N[C@@H]([C@@H](C)O)C(=O)N[C@@H](CCC(=O)O)C(=O)NCC(=O)N2CCC[C@H]2C(=O)N[C@@H](C(C)C)C(=O)NCC(=O)N[C@@H](Cc2c[nH]c3ccccc23)C(=O)N[C@@H](C(C)C)C(=O)N1)C(=O)O [IGE106, Ac-NLPRCTEGPVGWVCM] (Ac-NLPRCTEGPVGWVCM-OH; disulfide 5-14; C-terminus assumed) ... +++

---

# SYSTEM TESTED: alpha subunit of the human FcεRI receptor (Homo sapiens)
# Construct: expressed in transfected cells; host or cells: Chinese hamster ovary (CHO FcεRI+) cells
# Sequence (P12319 26-257): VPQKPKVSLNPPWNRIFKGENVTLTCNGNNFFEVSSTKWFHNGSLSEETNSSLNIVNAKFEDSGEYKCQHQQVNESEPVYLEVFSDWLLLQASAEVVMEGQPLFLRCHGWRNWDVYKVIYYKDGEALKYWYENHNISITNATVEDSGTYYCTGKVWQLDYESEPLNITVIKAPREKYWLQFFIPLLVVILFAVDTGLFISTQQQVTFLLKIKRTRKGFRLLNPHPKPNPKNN
# EXPERIMENTAL PROTOCOL: cell-based 125I-IgE binding inhibition assay on CHO FcεRI+ cells
# RUN PARAMETERS: inhibition of labeled IgE-binding to CHO FcεRI+ cells; read-out: Mean IC50(uM) ± S.D.
Where a SMILES comes first, the peptide text is derived from it. Bridges are numbered along the chain shown (N, C = ends). [ ]: non-standard residue; d: D form.
MEASUREMENT KIND: IC50 (µM)
Write the number in µM without appending the unit.

Below, 2 compounds whose answers are already recorded.
CSCC[C@H](NC(=O)[C@@H]1CSSC[C@H](NC(=O)[C@H](CCCNC(=N)N)NC(=O)[C@@H]2CCCN2C(=O)[C@H](CC(C)C)NC(=O)[C@H](CC(N)=O)NC(C)=O)C(=O)N[C@@H]([C@@H](C)O)C(=O)N[C@@H](CCC(=O)O)C(=O)NCC(=O)N2CCC[C@H]2C(=O)N[C@@H](Cc2c[nH]c3ccccc23)C(=O)NCC(=O)N[C@@H](Cc2c[nH]c3ccccc23)C(=O)N[C@@H](C(C)C)C(=O)N1)C(N)=O [IGE058, Ac-NLPRCTEGPWGWVCM-nh2] (Ac-NLPRCTEGPWGWVCM-NH2; disulfide 5-14) ... 1.8
CC[C@H](C)[C@H](NC(=O)[C@@H]1CSSC[C@H](N)C(=O)N[C@@H](CC(C)C)C(=O)N[C@@H](CCC(=O)O)C(=O)NCC(=O)N2CCC[C@H]2C(=O)N[C@@H](Cc2c[nH]c3ccccc23)C(=O)NCC(=O)N[C@@H](Cc2c[nH]c3ccccc23)C(=O)N[C@@H](Cc2ccccc2)C(=O)N1)C(N)=O [IGE045, CLEGPWGWFCI-nh2] (H-CLEGPWGWFCI-NH2; disulfide 1-10; N-terminus assumed) ... 300

Report IC50, nothing else, for this compound: CSCC[C@H](NC(=O)[C@@H]1CSSC[C@H](NC(=O)[C@H](CCCNC(=N)N)NC(=O)[C@@H]2CCCN2C(=O)[C@H](CC(C)C)NC(=O)[C@H](CC(N)=O)NC(C)=O)C(=O)N[C@@H]([C@@H](C)O)C(=O)N[C@@H](CCC(=O)O)C(=O)NCC(=O)N2CCC[C@H]2C(=O)N[C@@H](Cc2c[nH]c3ccccc23)C(=O)N[C@H](CCC(=O)O)C(=O)N[C@@H](Cc2c[nH]c3ccccc23)C(=O)N[C@@H](C(C)C)C(=O)N1)C(=O)O [IGE114, Ac-NLPRCTEGPWeWVCM] (Ac-NLPRCTEGPW[dE]WVCM-OH; disulfide 5-14)
1.7

---

# EXPERIMENTAL PROTOCOL: 2D NMR structural score versus reference peptide
# Assay type: physicochemical
# Set-up: key: +++ indicates the peptide is structured similarly to IGE063 (SEQ ID NO:49); + indicates the peptide is structured similarly to IGE063 (SEQ ID NO:49), but is less stable; −/+ indicates the peptide has some elements of stable structure, but the conformation differs from the reference structure (e.g., a different turn type is evident); − indicates the peptide is predominantly unstructured in aqueous solution
# RUN PARAMETERS: reference IGE063
Where a SMILES comes first, the peptide text is derived from it. Bridges are numbered along the chain shown (N, C = ends). [ ]: non-standard residue; d: D form.
MEASUREMENT KIND: Struct. Score

CSCC[C@H](NC(=O)[C@@H]1CSSC[C@H](NC(=O)[C@H](CCCNC(=N)N)NC(=O)[C@@H]2CCCN2C(=O)[C@H](CC(C)C)NC(=O)[C@@H](N)CC(N)=O)C(=O)N[C@@H]([C@@H](C)O)C(=O)N[C@@H](CCC(=O)O)C(=O)N[C@@H](C)C(=O)N2CCC[C@H]2C(=O)N[C@@H](Cc2c[nH]c3ccccc23)C(=O)NCC(=O)N[C@@H](Cc2c[nH]c3ccccc23)C(=O)N[C@@H](C(C)C)C(=O)N1)C(=O)O [IGE079, NLPRCTEAPWGWVCM] (H-NLPRCTEAPWGWVCM-OH; disulfide 5-14; N-terminus and C-terminus assumed) ... +++
CSCC[C@H](NC(=O)[C@@H]1CSSC[C@H](NC(=O)[C@H](CCCNC(=N)N)NC(=O)[C@@H]2CCCN2C(=O)[C@H](CC(C)C)NC(=O)[C@@H](N)CC(N)=O)C(=O)N[C@@H]([C@@H](C)O)C(=O)N[C@@H](CCC(=O)O)C(=O)NCC(=O)N2CCC[C@@H]2C(=O)N[C@@H](Cc2c[nH]c3ccccc23)C(=O)NCC(=O)N[C@@H](Cc2c[nH]c3ccccc23)C(=O)N[C@@H](C(C)C)C(=O)N1)C(=O)O [IGE071, NLPRCTEGpWGWVCM] (H-NLPRCTEG[dP]WGWVCM-OH; disulfide 5-14; N-terminus and C-terminus assumed) ... −/+

---

# SYSTEM TESTED: FcεRI-IgG (Homo sapiens)
# Construct: consisting of the extracellular domain of FcεR Ifused to the Fc domain of IgG; host or cells: CHO cells
# Sequence (P12319 26-205 limits assumed): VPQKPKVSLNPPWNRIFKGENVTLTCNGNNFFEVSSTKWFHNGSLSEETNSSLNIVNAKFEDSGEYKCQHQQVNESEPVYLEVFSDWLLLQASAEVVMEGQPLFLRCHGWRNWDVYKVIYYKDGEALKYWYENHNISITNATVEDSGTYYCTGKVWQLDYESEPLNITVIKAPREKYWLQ
# EXPERIMENTAL PROTOCOL: g3 phage competitive binding ELISA (competition with soluble FcεRI-IgG)
# RUN PARAMETERS: g3 phage clones; immobilized FcεRI-IgG, titrated soluble FcεRI-IgG; read-out: Phage IC50
pIC50: −log10 of the molar value.
MEASUREMENT KIND: pIC50

NLPRCTEGPWGWVCMAAD [g3b.1] ... 7.89

(a) GRTECTEGPWGWVCMAAD [g3b.8]
(b) NLPTCTEGPWGWVCMAAD [g3b.3]
Between a and b , whose recorded pIC50 is greater? Reply briefly: the label of your chosen item.
b
(b: 8.15, a: 7.85)
